tested on: CapD gamma-glutamyltranspeptidase (Bacillus anthracis Ames Ancestor); assay: Bacillus anthracis CapD inhibitors, primary screen, biochemical, fluorescence intensity (AID 492967); details: purified CapD enzyme, fluorescence intensity read-out
Screen size: about 140,000 compounds; about 320 (0.23%) were called active. Rule as the data show it: active = z-score mostly below about -2.9 (no sharp cut-off); inactive = mostly above about -1.9. For the sample, actives were picked, then their nearest neighbours and some compounds at random.
Outcome codes: active, inactive

>>> category_label("O=C(O)c1cc2c(s1)CS(=O)(=O)C2")
"active"
>>> category_label("O=c1cc(CO)oc(C(Nc2cccc(C(F)(F)F)c2)c2ccccn2)c1O (stereo unspecified)")
"active"
>>> category_label("CCCC(C(=O)O)N1C(=O)/C(=C/c2ccc(O)c(OCC)c2)SC1=S (stereo unspecified)")
"active"
>>> category_label("O=C(O)c1cc2ccccc2c(=O)s1")
"inactive"
>>> category_label("CCOc1cc(/C=C2\\SC(=S)N(c3c(C)n(C)n(-c4ccccc4)c3=O)C2=O)ccc1O")
"inactive"
>>> category_label("CCOC(=O)c1cc2cccc(NC(=O)c3cccc(C(F)(F)F)c3)c2[nH]1")
"inactive"
>>> category_label("O=C(NCCc1ccccc1)c1cc2c(s1)CS(=O)(=O)C2")
"inactive"
>>> category_label("O=C1CCc2ccccc2CN1")
"inactive"
>>> category_label("CCOc1cc(/C=C2\\SC(=S)N(C(C)C(=O)O)C2=O)ccc1O (stereo unspecified)")
"inactive"
>>> category_label("COc1cccc(N/C(SCc2c(F)cccc2Cl)=C(/C#N)C(=O)NCc2ccccc2)c1")
"inactive"
>>> category_label("CCOC(=O)C1=NN(C(=O)CCc2ccccc2)C(O)(c2ccc(Cl)cc2)C1 (stereo unspecified)")
"inactive"

###

tested on: CapD gamma-glutamyltranspeptidase (Bacillus anthracis Ames Ancestor); assay: Bacillus anthracis CapD inhibitors, primary screen, biochemical, fluorescence intensity (AID 492967); details: purified CapD enzyme, fluorescence intensity read-out; hits give low values
The whole screen tested about 140,000 compounds, of which about 320 (0.23%) were called active. Shown is part of a subset that was picked to be rich in actives.
z-score values for the compounds below.
MEASURED_METRIC: z-score

>>> test_result("O=C(c1ccc(Cn2c(=S)[nH]c3ccc(Br)cc3c2=O)cc1)N1CCN(C(=O)c2ccco2)CC1")
"0.025 (inactive)"
>>> test_result("CC(=O)c1cc(Cl)cc(Cl)c1OC(=O)c1c(-c2c(Cl)cccc2Cl)noc1C")
"-0.58 (inactive)"
>>> test_result("Clc1ccc(C2N=C(c3cnccn3)NN2)cc1 (stereo unspecified)")
"-0.935 (inactive)"
>>> test_result("O=C(O)c1cc2cccnc2nc1C(F)(F)F")
"-0.285 (inactive)"
>>> test_result("O=C(O)CSc1ncn(-c2ccccc2)n1")
"0.115 (inactive)"
>>> test_result("OC(CSCc1ccc(Cl)cc1)(c1ccccc1)c1ccccc1")
"-0.53 (inactive)"

###

system: CapD gamma-glutamyltranspeptidase (Bacillus anthracis Ames Ancestor); test: Bacillus anthracis CapD inhibitors, primary screen, biochemical, fluorescence intensity (AID 492967); conditions: purified CapD enzyme, fluorescence intensity read-out; hits give low values
Out of some 140,000 compounds screened, about 320 (0.23%) were called active. The full list was thinned out, with actives kept by preference.
z-score strictly under -0.3 means rule met; at -0.3 or over means rule not met.

>>> category_label("Cc1ccc(N2CCN(c3ccccc3)CC2)nn1")
"rule met"
>>> category_label("CCC(C(=O)Nc1cccc(OC)c1)N1C(=O)CCn2nccc21 (stereo unspecified)")
"rule not met"
>>> category_label("Fc1ccccc1-c1nc(N2CCC3(CC2)OCCO3)c2ccccc2n1")
"rule not met"
>>> category_label("CCC(=O)NCCc1nc2ccccc2n1CC")
"rule not met"
>>> category_label("N#Cc1c(-c2ccccc2)cc(-c2ccccc2)c(C#N)c1N")
"rule not met"
>>> category_label("Cc1ccccc1Cn1c(CCNC(=O)C(C)(C)C)nc2ccccc21")
"rule met"

###

tested on: CapD gamma-glutamyltranspeptidase (Bacillus anthracis Ames Ancestor); test: Bacillus anthracis CapD inhibitors, primary screen, biochemical, fluorescence intensity (AID 492967); details: purified CapD enzyme, fluorescence intensity read-out; hits give low values
Screen size: about 140,000 compounds; about 320 (0.23%) were called active. This excerpt belongs to a sample that is enriched for actives.
z-score values for the molecules below.
MEASURED_METRIC: z-score

>>> test_result("CCOC(=O)N/N=C1/c2ccccc2C2(O)NC(=O)NC12O (stereo not drawn)")
"0.15 (inactive)"
>>> test_result("O=C(O)c1ccccc1-c1ccccc1C(=O)Nc1nccs1")
"0.375 (inactive)"
>>> test_result("CCCCCNC(=O)c1ccc2c(c1)[nH]c(=S)n1c3ccccc3nc21")
"-0.3 (inactive)"
>>> test_result("CCOC(=O)c1cc2cccnc2nc1C")
"-0.34 (inactive)"
>>> test_result("CN(Cc1ccccc1)C(=O)Cn1ncc2c3ccccc3n(Cc3ccccc3F)c2c1=O")
"0.685 (inactive)"
>>> test_result("O=C1CC(c2c(Cl)cccc2Cl)c2ccc3ccccc3c2N1 (stereo not drawn)")
"0 (inactive)"
>>> test_result("CCCCOc1ccc(C(=O)Nc2ccc3nc(SCC(=O)NCC4CCCO4)sc3c2)cc1 (stereo not drawn)")
"0.345 (inactive)"
>>> test_result("Nc1[nH]c(=S)sc1C(=O)Nc1nccs1")
"-5.56 (active)"
>>> test_result("CCC(C)NC(=O)c1onc(C)c1Cl (stereo not drawn)")
"-0.44 (inactive)"
>>> test_result("CC(=O)Nc1ccccc1C(=O)OCC(=O)Nc1nc2ccccc2s1")
"-0.695 (inactive)"
>>> test_result("O=C(c1ccc(C(F)(F)F)cc1)N1CCC(c2nnc(-c3ccccc3)o2)CC1")
"-0.12 (inactive)"
>>> test_result("COc1ccc(CCNC(=O)CCC(=O)Nc2nc(-c3cc4ccccc4oc3=O)cs2)cc1OC")
"0.27 (inactive)"
>>> test_result("CC(C)(C)NC(=S)NNc1c(Cl)cncc1Cl")
"0.41 (inactive)"
>>> test_result("CCN1C[C@]2(OC(=O)c3ccccc3NC(C)=O)CC[C@H](OC)[C@@]34C2C[C@@H]([C@@H]13)[C@@]1(O)C[C@H](OC)[C@H]2CC4[C@]1(O)[C@H]2OC (stereo partly drawn)")
"7.48 (inactive)"
>>> test_result("NC(=S)c1ccc(-c2csnn2)cc1")
"-0.465 (inactive)"
>>> test_result("Cc1cccc(-c2noc(-c3ccc(OC(F)(F)F)cc3)n2)c1")
"-0.145 (inactive)"
>>> test_result("CC1(C)CC(=O)C(=Cc2c[nH]c3ccccc23)C(=O)C1")
"-4.71 (active)"
>>> test_result("O=C(Nc1nccs1)c1cc(=O)c2ccccc2o1")
"-0.41 (inactive)"
>>> test_result("COc1ccc(OC)c(/C=N/NC(=O)c2cn(C)c3ccccc23)c1")
"14.4 (inactive)"
>>> test_result("CCCNC(=O)Nc1ccc2snnc2c1")
"26.7 (inactive)"
>>> test_result("Cc1ccc2c(c1)c1c3n2CCN(S(C)(=O)=O)C3CCC1 (stereo not drawn)")
"0.19 (inactive)"
>>> test_result("FC(F)(F)C1=CC=NCCN1")
"-4.38 (active)"
>>> test_result("O=C(COC(=O)Cc1ccsc1)Nc1ccccc1C(F)(F)F")
"-1.17 (inactive)"

###

test system: CapD gamma-glutamyltranspeptidase (Bacillus anthracis Ames Ancestor); experiment: Bacillus anthracis CapD inhibitors, primary screen, biochemical, fluorescence intensity (AID 492967); conditions: purified CapD enzyme, fluorescence intensity read-out; hits give low values
About 320 (0.23%) of roughly 140,000 compounds were called active. This excerpt belongs to a sample that is enriched for actives.
z-score values for the compounds below.
MEASURED_METRIC: z-score

>>> test_result("Cc1ccc(-c2n[nH]c3c2C(c2ccccc2F)N(c2ccc(F)cc2)C3=O)cc1 (configuration not stated)")
-0.525
>>> test_result("CC(C)CCOc1ccc(C(=O)C(C)C)cc1")
0.445
>>> test_result("Cc1c(Cl)cccc1N=C1NC(=O)/C(=C/c2ccco2)S1")
-1
>>> test_result("COc1cc(C(=O)Nc2c3c(nn2-c2cccc(C)c2C)CS(=O)(=O)C3)cc(OC)c1OC")
0.345
>>> test_result("CCOC(=O)CC(=O)CSc1nc2c(sc(=S)n2CCc2ccccc2)c(=O)n1Cc1ccco1")
0.52
>>> test_result("O=C(/C=C/c1cn(-c2ccccc2)nc1-c1ccc(F)cc1)NCc1cccnc1")
2.33
>>> test_result("CN(C)/C=C/C(=O)C(Cc1ccc(Cl)cc1)Cc1ccc(Cl)cc1")
-0.33
>>> test_result("O=C(CSc1ccc(Cl)cc1)N1CCC(C(F)(F)F)CC1")
0.56
>>> test_result("O=C(O)CC(CC(=O)Oc1ccccc1N1CCCC1)c1ccccc1 (configuration not stated)")
-0.435
>>> test_result("COc1ccc(S(=O)c2ccccc2C(=O)O)cc1 (configuration not stated)")
0.375
>>> test_result("Nc1ccc2c(c1)C/C(=C\\c1ccco1)C2=O")
-3.17
>>> test_result("ClCCOc1nc(N2CCOCC2)nc(N2CCOCC2)n1")
-0.68
>>> test_result("C=CCn1cc(C=C2C(=O)N(C)C(=S)N(C)C2=O)c2ccccc21")
3.29
>>> test_result("O=C(O)Cn1cc(/C=C2\\C(=O)NN(c3ccccc3)C2=O)c2ccccc21")
-6.26
>>> test_result("COc1ccc(OC)c(-n2c(=S)[nH]c3cc(C(=O)Nc4ccc(OC)c(OC)c4)ccc3c2=O)c1")
-1.08
>>> test_result("COc1ccc(C(=O)N2CCN(C(=O)OCc3ccc(SC(F)(F)F)cc3)CC2)cc1F")
0.325
>>> test_result("COc1cc(NC(=O)c2cc(N(C)C)nc(N(C)C)n2)cc(OC)c1")
4.64
>>> test_result("CC(C)(C)c1ccc(OCCCn2c(=O)sc3ccccc32)cc1")
0.35
>>> test_result("CC(C)C(=O)Nc1c2c(nn1-c1ccccc1)CSC2")
0.225
>>> test_result("COc1ccc2nc3oc(C(=O)NC4CC4)cc3cc2c1")
3.45
>>> test_result("Nc1c(C(=O)O)noc1C(=O)c1ccccc1")
2.44
>>> test_result("CC(C)(C)c1ccc(S(=O)(=O)Nc2ccc3c(c2)N(S(=O)(=O)c2cccc(C(F)(F)F)c2)CC3)cc1")
-0.6

meta.source: PubChem BioAssay AID492967
